# System: HCT-15
# assayExplanation: Antiproliferative activity against human HCT15 cells assessed as reduction in cell viability after 48 hrs by SRB assay
# Assay type: functional, cell-based
# conditionSummary: HCT-15, 48 h
endpointName: pIC50
pIC50 is a log-scale quantity: -log10 of the concentration expressed in molar.

Q. Fill in the blank: the reported pIC50 of C/C=C(\C)C(=O)O[C@H]1C=CC(=O)O[C@H]1CCC(=O)[C@H](C)O is ____.
A. 4.74

Q. Fill in the blank: the reported pIC50 of C/C=C(\C)C(=O)O[C@H]1C=CC(=O)O[C@H]1COC(=O)[C@H](C)O is ____.
A. 4.96

Q. Fill in the blank: the reported pIC50 of C/C=C(\C)C(=O)O[C@H]1C=CC(=O)O[C@H]1CNC(=O)[C@H](C)O is ____.
A. 4.60

----------
# Tested on: OVCAR-8
# assayExplanation: Antiproliferative activity against human OVCAR8 cells assessed as reduction in cell viability after 48 hrs by SRB assay
# Assay type: functional, cell-based
# conditionSummary: OVCAR-8, 48 h
endpointName: IC50 (µM)
Express it in µM; write the number only.

Q. Fill in the blank: the reported IC50 of C/C=C(\C)C(=O)O[C@H]1C=CC(=O)O[C@H]1COC(=O)[C@H](C)O is ____.
A. 16

Q. Fill in the blank: the reported IC50 of C/C=C(\C)C(=O)O[C@H]1C=CC(=O)O[C@H]1CC[C@H](O)[C@H](C)O [6,7-DIHYDROPHOMOPSOLIDE B] is ____.
A. 18

----------
# Test system: HCT-116
# assayExplanation: Antiproliferative activity against human HCT116 cells assessed as reduction in cell viability after 48 hrs by SRB assay
# Type: functional, cell-based
# conditionSummary: HCT-116, 48 h
endpointName: pIC50
pIC50 is a log-scale quantity: -log10 of the concentration expressed in molar.

Q. Fill in the blank: the reported pIC50 of C/C=C(\C)C(=O)O[C@H]1C=CC(=O)O[C@H]1CNC(=O)[C@H](C)O is ____.
A. 4.60

Q. Fill in the blank: the reported pIC50 of C/C=C(\C)C(=O)O[C@H]1C=CC(=O)O[C@H]1COC(=O)[C@H](C)O is ____.
A. 4.96

Q. Fill in the blank: the reported pIC50 of C/C=C(\C)C(=O)O[C@H]1C=CC(=O)O[C@H]1CCC(=O)[C@H](C)O is ____.
A. 4.74

----------
# Test system: U-251
# assayExplanation: Antiproliferative activity against human U251 cells assessed as reduction in cell viability after 48 hrs by SRB assay
# Assay type: functional, cell-based
# conditionSummary: U-251, 48 h
endpointName: IC50 (µM)
Express it in µM; write the number only.

Q. Fill in the blank: the reported IC50 of C/C=C(\C)C(=O)O[C@H]1C=CC(=O)O[C@H]1COC(=O)[C@H](C)O is ____.
A. 16

Q. Fill in the blank: the reported IC50 of C/C=C(\C)C(=O)O[C@H]1C=CC(=O)O[C@H]1CC[C@H](O)[C@H](C)O [6,7-DIHYDROPHOMOPSOLIDE B] is ____.
A. 17

----------
Exercise: for every item that follows, state its recorded pIC50.
# System: SF-539
# assayExplanation: Antiproliferative activity against human SF539 cells assessed as reduction in cell viability after 48 hrs by SRB assay
# Format: functional, cell-based
# conditionSummary: SF-539, 48 h
pIC50 is a log-scale quantity: -log10 of the concentration expressed in molar.

Q. Fill in the blank: the reported pIC50 of C/C=C(\C)C(=O)O[C@H]1C=CC(=O)O[C@H]1CC[C@H](O)[C@H](C)O [6,7-DIHYDROPHOMOPSOLIDE B] is ____.
A. 4.77

Q. Fill in the blank: the reported pIC50 of C/C=C(\C)C(=O)O[C@H]1C=CC(=O)O[C@H]1COC(=O)[C@H](C)O is ____.
A. 4.80

----------
# Test system: HT-29
# assayExplanation: Antiproliferative activity against human HT-29 cells assessed as reduction in cell viability after 48 hrs by SRB assay
# Type: functional, cell-based
# conditionSummary: HT-29, 48 h
Exercise: for every item that follows, state its recorded pIC50.
pIC50 is a log-scale quantity: -log10 of the concentration expressed in molar.

Q. Which pIC50 is reported with HT-29 for this entry: C/C=C(\C)C(=O)O[C@H]1C=CC(=O)O[C@H]1CCC(=O)[C@H](C)O ?
A. 4.74

Q. Which pIC50 is reported with HT-29 for this entry: C/C=C(\C)C(=O)O[C@H]1C=CC(=O)O[C@H]1CNC(=O)[C@H](C)O ?
A. 4.60

Q. Which pIC50 is reported with HT-29 for this entry: C/C=C(\C)C(=O)O[C@H]1C=CC(=O)O[C@H]1COC(=O)[C@H](C)O ?
A. 4.96

----------
Exercise: for every item that follows, state its recorded IC50.
# System: CAKI-1
# assayExplanation: Antiproliferative activity against human CAKI-1 cells assessed as reduction in cell viability after 48 hrs by SRB assay
# Type: functional, cell-based
# conditionSummary: CAKI-1, 48 h
Express it in µM; write the number only.

Q. Fill in the blank: the reported IC50 of C/C=C(\C)C(=O)O[C@H]1C=CC(=O)O[C@H]1COC(=O)[C@H](C)O is ____.
A. 15

Q. Fill in the blank: the reported IC50 of C/C=C(\C)C(=O)O[C@H]1C=CC(=O)O[C@H]1CNC(=O)[C@H](C)O is ____.
A. 30

Hey, just so you know, these numbers are from ChEMBL document CHEMBL4373641.
